Reference source: ChEMBL document CHEMBL4673260

Molecular target: UniProt P21731
Sequence (P21731 whole entry): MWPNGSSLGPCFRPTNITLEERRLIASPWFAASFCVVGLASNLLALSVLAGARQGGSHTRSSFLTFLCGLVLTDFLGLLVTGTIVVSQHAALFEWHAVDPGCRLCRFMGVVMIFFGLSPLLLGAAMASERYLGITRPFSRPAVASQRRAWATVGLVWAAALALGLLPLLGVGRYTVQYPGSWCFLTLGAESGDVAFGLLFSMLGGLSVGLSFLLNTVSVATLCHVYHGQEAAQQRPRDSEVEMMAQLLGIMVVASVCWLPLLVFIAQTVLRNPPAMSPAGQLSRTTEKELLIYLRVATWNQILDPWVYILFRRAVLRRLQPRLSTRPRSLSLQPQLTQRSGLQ
PROPERTY: IC50

Exercise: Reported IC50 for CN(C)CC/C=C/c1cccnc1 : what is it?
Key: > 10 µM

---

Test: Displacement of [3H]nicotine from dopamine D4.2 receptor (unknown origin)
Design: species or system Homo sapiens
PROPERTY: IC50

Exercise: Reported IC50 for CN(C)CC/C=C/c1cccnc1 : what is it?
Key: > 10 µM

---

Target: L-type calcium channel (Homo sapiens, UniProt O60840+Q01668+Q13698+Q13936)
Experiment: Inhibition of L-type calcium channel (unknown origin) at 10 uM relative to control
Type: protein assay
PROPERTY: inhibition at 10 µM

Exercise: Reported inhibition at 10 µM for CN1C(=O)CC[C@H]1c1cccnc1 [COTININE] : what is it?
Key: < 50%
